Each recorded value in this set is attributed to patent US10941182.

# Measured On: T1, rat APJ receptor (rat, UniProt Q9JHG3 1-377)
# T1 sequence (looked up): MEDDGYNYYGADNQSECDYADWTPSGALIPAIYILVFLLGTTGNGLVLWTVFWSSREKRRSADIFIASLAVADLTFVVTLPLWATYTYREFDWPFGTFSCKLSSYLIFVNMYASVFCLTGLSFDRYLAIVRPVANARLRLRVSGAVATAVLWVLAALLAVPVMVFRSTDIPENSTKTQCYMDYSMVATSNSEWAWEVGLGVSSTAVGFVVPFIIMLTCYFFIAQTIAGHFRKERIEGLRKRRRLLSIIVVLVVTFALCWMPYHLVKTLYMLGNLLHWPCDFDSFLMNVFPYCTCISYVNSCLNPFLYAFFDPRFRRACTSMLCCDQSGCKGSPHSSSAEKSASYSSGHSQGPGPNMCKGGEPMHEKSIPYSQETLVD
# Run Description: cell-based or functional assay
Starred links: 1 amine or outer side, 2 acyl side, 3 side chain; linkers in the order of their positions; H or OH if unused. Non-standard residues stand in square brackets, D forms with d. Primed or numbered codes have the meaning given here. *: point of attachment. AC4Abu = α-carboxy-4-aminobutyric acid, O=C(C(CCN[*:1])C(=O)[*:3])[*:2]; Oic = O=C(O)[C@@H]1C[C@@H]2CCCC[C@@H]2N1; Phe(4-Cl) = N[C@@H](Cc1ccc(Cl)cc1)C(=O)O; dPhe(4-Cl) = N[C@H](Cc1ccc(Cl)cc1)C(=O)O; γGlu = O=C(O)[C@H](CCC(=O)[*:2])N[*:1]; 2Nal = N[C@@H](Cc1ccc2ccccc2c1)C(=O)O; NMeR = CN[C@@H](CCCNC(=N)N)C(=O)O; Tridecanoyl = CCCCCCCCCCCCC(=O)*; hArg = N=C(N)NCCCC[C@H](N)C(=O)O; Cha = N[C@@H](CC1CCCCC1)C(=O)O; αMeP = C[C@@]1(C(=O)O)CCCN1; AC4Abu″ = not defined here; Nle = CCCC[C@H](N)C(=O)O; AEEA = NCCOCCOCC(=O)O; Aib = CC(C)(N)C(=O)O; BLeu = β-leucine; βAla = NCCC(=O)O
Measured EC50 Rat APJ Receptor (GTPγS assay) accompanies every entry in the list below.
Answer in nM, number only, no unit symbol.

Worked cases, answers included:
[
  {
    "Binder": "XXXQRPRLSHKGXXPF ({TDA}[AC4Abu][Aeea][Aeea]qRP[NMeArg][aMeLeu]SHKG[Pip][Nle][aMePro][4-Cl-F]{COOH}) [Apelin polypeptide SEQ ID NO: 555]",
    "EC50 Rat APJ Receptor (GTPγS assay) / nM": 0.421
  },
  {
    "Binder": "Tridecanoyl-[γGlu][AEEA][AEEA]QRPPLSHKGP[Nle]P[Phe(4-Cl)]-OH (SMILES CCCCCCCCCCCCC(=O)N[C@@H](CCC(=O)NCCOCCOCC(=O)NCCOCCOCC(=O)N[C@@H](CCC(N)=O)C(=O)N[C@@H](CCCNC(=N)N)C(=O)N1CCC[C@H]1C(=O)N1CCC[C@H]1C(=O)N[C@@H](CC(C)C)C(=O)N[C@@H](CO)C(=O)N[C@@H](Cc1c[nH]cn1)C(=O)N[C@@H](CCCCN)C(=O)NCC(=O)N1CCC[C@H]1C(=O)N[C@@H](CCCC)C(=O)N1CCC[C@H]1C(=O)N[C@@H](Cc1ccc(Cl)cc1)C(=O)O)C(=O)O) [Apelin polypeptide SEQ ID NO: 427]",
    "EC50 Rat APJ Receptor (GTPγS assay) / nM": 0.313
  },
  {
    "Binder": "Tridecanoyl-[AC4Abu][AEEA][AEEA]QRP[NMeR][Cha]SHKG[Oic][Nle][dPhe(4-Cl)]-OH (SMILES CCCCCCCCCCCCC(=O)NCCC(C(=O)O)C(=O)NCCOCCOCC(=O)NCCOCCOCC(=O)N[C@@H](CCC(N)=O)C(=O)N[C@@H](CCCNC(=N)N)C(=O)N1CCC[C@H]1C(=O)N(C)[C@@H](CCCNC(=N)N)C(=O)N[C@@H](CC1CCCCC1)C(=O)N[C@@H](CO)C(=O)N[C@@H](Cc1c[nH]cn1)C(=O)N[C@@H](CCCCN)C(=O)NCC(=O)N1[C@H](C(=O)N[C@@H](CCCC)C(=O)N[C@H](Cc2ccc(Cl)cc2)C(=O)O)C[C@@H]2CCCC[C@@H]21) [Apelin polypeptide SEQ ID NO: 410]",
    "EC50 Rat APJ Receptor (GTPγS assay) / nM": 2.68
  },
  {
    "Binder": "XXXQRPRLSHKGPXPF ({TDA}[AC4Abu][Aeea][Aeea]QrP[NMehArg][aMeLeu]SHKGP[Nle]P[4-Cl-F]{COOH}) [Apelin polypeptide SEQ ID NO: 456]",
    "EC50 Rat APJ Receptor (GTPγS assay) / nM": 0.178
  },
  {
    "Binder": "Tridecanoyl-[γGlu][AEEA][AEEA]QRP[NMeR]LSHHGP[Nle]P[Phe(4-Cl)]-OH (SMILES CCCCCCCCCCCCC(=O)N[C@@H](CCC(=O)NCCOCCOCC(=O)NCCOCCOCC(=O)N[C@@H](CCC(N)=O)C(=O)N[C@@H](CCCNC(=N)N)C(=O)N1CCC[C@H]1C(=O)N(C)[C@@H](CCCNC(=N)N)C(=O)N[C@@H](CC(C)C)C(=O)N[C@@H](CO)C(=O)N[C@@H](Cc1c[nH]cn1)C(=O)N[C@@H](Cc1c[nH]cn1)C(=O)NCC(=O)N1CCC[C@H]1C(=O)N[C@@H](CCCC)C(=O)N1CCC[C@H]1C(=O)N[C@@H](Cc1ccc(Cl)cc1)C(=O)O)C(=O)O) [Apelin polypeptide SEQ ID NO: 448]",
    "EC50 Rat APJ Receptor (GTPγS assay) / nM": 0.305
  },
  {
    "Binder": "Tridecanoyl-[γGlu][AEEA][AEEA]QRP[NMeR]L[βAla]HKGP[Nle]P[Phe(4-Cl)]-OH (SMILES CCCCCCCCCCCCC(=O)N[C@@H](CCC(=O)NCCOCCOCC(=O)NCCOCCOCC(=O)N[C@@H](CCC(N)=O)C(=O)N[C@@H](CCCNC(=N)N)C(=O)N1CCC[C@H]1C(=O)N(C)[C@@H](CCCNC(=N)N)C(=O)N[C@@H](CC(C)C)C(=O)NCCC(=O)N[C@@H](Cc1c[nH]cn1)C(=O)N[C@@H](CCCCN)C(=O)NCC(=O)N1CCC[C@H]1C(=O)N[C@@H](CCCC)C(=O)N1CCC[C@H]1C(=O)N[C@@H](Cc1ccc(Cl)cc1)C(=O)O)C(=O)O) [Apelin polypeptide SEQ ID NO: 464]",
    "EC50 Rat APJ Receptor (GTPγS assay) / nM": 0.377
  }
]

Complete the entry with EC50 Rat APJ Receptor (GTPγS assay) for XXXQRPRLSHKGPXPF ({TDA}[AC4Abu][Aeea][Aeea]qR[aMePro][hArg][BLeu]SHKG[aMePro][Nle][aMePro][4-Cl-F]{COOH}) [Apelin polypeptide SEQ ID NO: 504]
23.1

Complete the entry with EC50 Rat APJ Receptor (GTPγS assay) for Tridecanoyl-[γGlu][AEEA][AEEA]QRP[NMeR]LSHKGP[Nle]P[2Nal]-OH (SMILES CCCCCCCCCCCCC(=O)N[C@@H](CCC(=O)NCCOCCOCC(=O)NCCOCCOCC(=O)N[C@@H](CCC(N)=O)C(=O)N[C@@H](CCCNC(=N)N)C(=O)N1CCC[C@H]1C(=O)N(C)[C@@H](CCCNC(=N)N)C(=O)N[C@@H](CC(C)C)C(=O)N[C@@H](CO)C(=O)N[C@@H](Cc1c[nH]cn1)C(=O)N[C@@H](CCCCN)C(=O)NCC(=O)N1CCC[C@H]1C(=O)N[C@@H](CCCC)C(=O)N1CCC[C@H]1C(=O)N[C@@H](Cc1ccc2ccccc2c1)C(=O)O)C(=O)O) [Apelin polypeptide SEQ ID NO: 470]
0.149

Complete the entry with EC50 Rat APJ Receptor (GTPγS assay) for Tridecanoyl-[AC4Abu″][AEEA][AEEA][dR][dQ][hArg]P[hArg][Cha]SHKG[Oic][Nle]P[Phe(4-Cl)]-OH (reading uncertain; also: printed as {TDA}[AC4Abu][Aeea][Aeea]rq[hArg]P[hArg][Cha]SHKG[Oic][Nle]P[4-Cl-F]{COOH}) [Apelin polypeptide SEQ ID NO: 481]
0.341

Complete the entry with EC50 Rat APJ Receptor (GTPγS assay) for Tridecanoyl-[γGlu][AEEA][AEEA][dQ]R[αMeP][hArg][BLeu]SHKG[Oic][Nle][Aib][Phe(4-Cl)]-OH [Apelin polypeptide SEQ ID NO: 505]
0.516
